- target-or-system: UniProt Q8IIE7
- experimental-details: IC50 for competition of protein binding to Kinobeads;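 further: native unpurified kinases from lysate captured on beads bearing immobilized kinase inhibitors, with bead-bound kinases quantified by mass spectrometry across compound doses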
- run-conditions: assay detail: Kinobeads competition in P. falciparum blood-stage lysate
measured-endpoint: pIC50
Reminder that pIC50 is minus the log10 of a molar concentration.

Please report the recorded pIC50 for O=c1[nH]c2ccc(Cl)cc2c(NC2CN3CCC2CC3)c1-c1nc2ccccc2[nH]1 (stereo unspecified) .
6.75

* * *

- target-or-system: UniProt Q8I3W0
- experimental-details: IC50 for competition of protein binding to Kinobeads
- run-conditions: assay detail: Kinobeads competition in P. falciparum blood-stage lysate
pIC50: −log10 of the molar value.
measured-endpoint: pIC50

Please report the recorded pIC50 for O=c1[nH]c2ccc(Cl)cc2c(NC2CN3CCC2CC3)c1-c1nc2ccccc2[nH]1 (stereo unspecified) .
< 4.70
